# Target desc: recombinant human PAI-1 (Homo sapiens, UniProt P05121)
# Sequence (P05121 24-402): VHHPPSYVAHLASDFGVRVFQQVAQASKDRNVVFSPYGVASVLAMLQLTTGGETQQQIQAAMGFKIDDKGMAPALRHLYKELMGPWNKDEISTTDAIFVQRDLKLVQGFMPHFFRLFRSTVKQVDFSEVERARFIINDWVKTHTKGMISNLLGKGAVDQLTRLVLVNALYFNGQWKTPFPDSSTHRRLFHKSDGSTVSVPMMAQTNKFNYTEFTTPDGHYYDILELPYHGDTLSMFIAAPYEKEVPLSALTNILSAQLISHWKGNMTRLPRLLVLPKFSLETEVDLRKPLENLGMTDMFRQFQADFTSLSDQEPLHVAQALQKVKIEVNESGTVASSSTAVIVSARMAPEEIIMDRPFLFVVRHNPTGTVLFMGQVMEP
# Test summary: Test Example 2: Human PAI-1 Inhibitory Activity (pH 7.4 HEPES buffer, 10 minutes incubation with two-chain tPA)
# Assay type: biochemical
# Set-up: purchased Molecular Innovations, Inc
# Experimental setup: read-out: Inhibition Rate of PAI-1 Activity (%)
Form field: inhibition at 1 µM (one value per entry).
Measurement name: inhibition at 1 µM (%)

[
  {
    "Compound": "O=C(O)/C=C/c1ccc(-c2ccc(OC(F)(F)F)cc2)cc1Oc1ccc(OC(F)(F)F)cc1",
    "Endpoint value": 60
  },
  {
    "Compound": "CC(C)(C)c1ccc(-c2ccc(CN(C(=O)C(=O)O)c3ccc(OC(F)(F)F)cc3)cc2)cc1",
    "Endpoint value": 43
  },
  {
    "Compound": "CC(C)(C)c1ccc(C(=O)c2cc(-c3ccc(OC(F)(F)F)cc3)ccc2OCC(=O)O)cc1",
    "Endpoint value": 84
  },
  {
    "Compound": "CC(C)Oc1ccc(N(Cc2ccc(C(C)(C)C)cc2)C(=O)C(=O)O)cc1-c1ccc(OC(F)(F)F)cc1",
    "Endpoint value": 43
  },
  {
    "Compound": "CCCCC(Oc1ccc(-c2cccc(C(F)(F)F)c2)cc1Oc1ccc(C(C)(C)C)cc1)C(=O)O (stereo not shown)",
    "Endpoint value": 70
  },
  {
    "Compound": "CC(C)(C)c1cccc(Oc2cc(-c3cccc(OC(F)(F)F)c3)ccc2/C=C/C(=O)O)c1",
    "Endpoint value": 96
  },
  {
    "Compound": "CC(C)(C)c1ccc(N(CC(=O)O)c2ccccc2Oc2ccc(OC(F)(F)F)cc2)cc1",
    "Endpoint value": 49
  }
]

====

# Target desc: recombinant human PAI-1 (Homo sapiens, UniProt P05121)
# Test summary: Test Example 2: Human PAI-1 Inhibitory Activity (pH 7.4 HEPES buffer, 10 minutes incubation with two-chain tPA)
# Assay type: biochemical
# Design: purchased Molecular Innovations, Inc
# Experimental setup: read-out: Inhibition Rate of PAI-1 Activity (%)

[
  {
    "Compound smiles": "CC(C)(C)c1ccc(-c2ccc(CN(C(=O)C(=O)O)c3ccc(OC(F)(F)F)cc3)cc2)cc1",
    "Limit qualifier": "=",
    "inhibition at 25 µM / %": 95
  },
  {
    "Compound smiles": "O=C(O)CC(=O)N(Cc1ccccc1)c1ccc(-c2ccc(OC(F)(F)F)cc2)cc1F",
    "Limit qualifier": ">",
    "inhibition at 25 µM / %": 99
  },
  {
    "Compound smiles": "CN(C(=O)c1ccc(OC(F)(F)F)cc1)c1ccc(OCc2ccc(C(C)(C)C)cc2)c(CCC(=O)O)c1",
    "Limit qualifier": ">",
    "inhibition at 25 µM / %": 99
  },
  {
    "Compound smiles": "CCCCOc1ccc(-c2ccc(OC(F)(F)F)cc2)cc1C=CC(=O)O",
    "Limit qualifier": "=",
    "inhibition at 25 µM / %": 95
  },
  {
    "Compound smiles": "CCCCOc1ccc(-c2ccc(OC(F)(F)F)cc2)cc1CCC(=O)O",
    "Limit qualifier": "=",
    "inhibition at 25 µM / %": 98
  },
  {
    "Compound smiles": "O=C(O)C(=O)N(Cc1ccc(-c2ccc(OC(F)(F)F)cc2)cc1)c1ccccc1",
    "Limit qualifier": "=",
    "inhibition at 25 µM / %": 81
  },
  {
    "Compound smiles": "CC(C)(C)c1ccc(N(CC(=O)O)c2ccccc2Oc2ccc(OC(F)(F)F)cc2)cc1",
    "Limit qualifier": "=",
    "inhibition at 25 µM / %": 86
  },
  {
    "Compound smiles": "CC(C)(C)c1ccc(COc2ccc(NS(=O)(=O)c3ccc(OC(F)(F)F)cc3)cc2CCC(=O)O)cc1",
    "Limit qualifier": ">",
    "inhibition at 25 µM / %": 99
  }
]

====

# Target desc: recombinant human PAI-1 (Homo sapiens, UniProt P05121)
# Test summary: Test Example 2: Human PAI-1 Inhibitory Activity (pH 7.4 HEPES buffer, 10 minutes incubation with two-chain tPA)
# Format: biochemical
# Design: purchased Molecular Innovations, Inc
# Experimental setup: read-out: Inhibition Rate of PAI-1 Activity (%)
Measurement name: inhibition at 0.3 µM

[
  {
    "Compound": "O=C(O)C(=O)N(CCCCc1ccccc1)c1cc(-c2ccc(OC(F)(F)F)cc2)ccc1OCCC(F)(F)F [Compound 383]",
    "Measurement name": "inhibition at 0.3 µM",
    "Endpoint value": "6%"
  },
  {
    "Compound": "CC(C)Oc1ccc(-c2ccc(OCC(=O)O)c(Oc3ccc(C(C)(C)C)cc3)c2)cc1 [Compound 460]",
    "Measurement name": "inhibition at 0.3 µM",
    "Endpoint value": "8%"
  },
  {
    "Compound": "CCCCCCCCCOc1ccc(N(CCCCc2ccccc2)C(=O)C(=O)O)cc1-c1ccc(OC(F)(F)F)cc1 [Compound 387]",
    "Measurement name": "inhibition at 0.3 µM",
    "Endpoint value": "> 99%"
  },
  {
    "Compound": "CCCCCOc1ccc(-c2ccc(OC(F)(F)F)cc2)cc1N(CCCSc1ccccc1)C(=O)C(=O)O [Compound 357]",
    "Measurement name": "inhibition at 0.3 µM",
    "Endpoint value": "2%"
  },
  {
    "Compound": "O=C(O)CCc1ccc(-c2ccc(OC(F)(F)F)cc2)cc1Oc1ccc2ccccc2c1 [Compound 476]",
    "Measurement name": "inhibition at 0.3 µM",
    "Endpoint value": "3%"
  },
  {
    "Compound": "CCCCCOc1cc(-c2cccc(OC(F)(F)F)c2)ccc1N(CCCCc1ccccc1)C(=O)C(=O)O [Compound 393]",
    "Measurement name": "inhibition at 0.3 µM",
    "Endpoint value": "19%"
  },
  {
    "Compound": "CCCCc1ccc(Oc2cc(-c3ccc(OC(F)(F)F)cc3)ccc2/C=C/C(=O)O)cc1 [Compound 511]",
    "Measurement name": "inhibition at 0.3 µM",
    "Endpoint value": "68%"
  },
  {
    "Compound": "CC(C)[C@@H]1CC[C@@H](C)C[C@H]1Oc1ccc(-c2ccc(OC(F)(F)F)cc2)cc1N(CCCCc1ccccc1)C(=O)C(=O)O [Compound 639]",
    "Measurement name": "inhibition at 0.3 µM",
    "Endpoint value": "12%"
  },
  {
    "Compound": "Cc1cccc(-c2ccc(Oc3ccc(C(C)(C)C)cc3)c(OCC(=O)O)c2)c1 [Compound 316]",
    "Measurement name": "inhibition at 0.3 µM",
    "Endpoint value": "8%"
  },
  {
    "Compound": "Cc1cc(N(C)C)c(-c2ccc(OC(F)(F)F)cc2)cc1N(Cc1ccc(C(C)(C)C)cc1)C(=O)C(=O)O [Compound 215]",
    "Measurement name": "inhibition at 0.3 µM",
    "Endpoint value": "18%"
  },
  {
    "Compound": "CC(C)c1ccccc1Oc1cc(-c2ccc(OC(F)(F)F)cc2)ccc1/C=C/C(=O)O [Compound 490]",
    "Measurement name": "inhibition at 0.3 µM",
    "Endpoint value": "13%"
  },
  {
    "Compound": "Cc1cccc(-c2ccc(OCC(=O)O)c(Oc3ccc(C(C)(C)C)cc3)c2)c1 [Compound 319]",
    "Measurement name": "inhibition at 0.3 µM",
    "Endpoint value": "9%"
  },
  {
    "Compound": "Cc1cc(C)cc(Oc2cc(-c3ccc(C(C)(C)C)cc3)ccc2/C=C/C(=O)O)c1 [Compound 494]",
    "Measurement name": "inhibition at 0.3 µM",
    "Endpoint value": "24%"
  },
  {
    "Compound": "CC(C)(C)c1ccc(Oc2cc(-c3ccc(OC(F)(F)F)cc3)ccc2OCC(=O)O)cc1 [Compound 112]",
    "Measurement name": "inhibition at 0.3 µM",
    "Endpoint value": "19%"
  },
  {
    "Compound": "CC(C)(C)c1ccc(-c2ccc(OCC(=O)O)c(Oc3cccc(C(C)(C)C)c3)c2)cc1 [Compound 465]",
    "Measurement name": "inhibition at 0.3 µM",
    "Endpoint value": "17%"
  }
]

====

# Target desc: recombinant human PAI-1 (Homo sapiens)
# Test summary: biochemical
# Experimental setup: read-out: Inhibition Rate of PAI Activity (%)
Outcome: yes (1) for inhibition at 25 µM of at least 90%; no (0) for anything lower.

[
  {
    "Molecule": "O=C(O)CCc1cc(-c2ccc(OC(F)(F)F)cc2)ccc1OCc1ccc(OC(F)(F)F)cc1 [Compound 62]",
    "Target desc": "recombinant human PAI-1 (Homo sapiens)",
    "Class label": "yes (1)"
  },
  {
    "Molecule": "Cc1cc(C)cc(COc2ccc(-c3ccc(OC(F)(F)F)cc3)cc2CC(=O)O)c1 [Compound 11]",
    "Target desc": "recombinant human PAI-1 (Homo sapiens)",
    "Class label": "yes (1)"
  },
  {
    "Molecule": "O=C(O)CCc1cc(-c2ccc(OC(F)(F)F)cc2)ccc1OCc1ccc(F)cc1 [Compound 20]",
    "Target desc": "recombinant human PAI-1 (Homo sapiens)",
    "Class label": "no (0)"
  },
  {
    "Molecule": "Cc1ccc(COc2ccc(-c3ccc(OC(F)(F)F)cc3)cc2CCC(=O)O)cc1 [Compound 61]",
    "Target desc": "recombinant human PAI-1 (Homo sapiens)",
    "Class label": "yes (1)"
  },
  {
    "Molecule": "O=C(O)/C=C/c1cc(-c2ccc(OC(F)(F)F)cc2)ccc1Oc1ccc(OC(F)(F)F)cc1 [Compound 15]",
    "Target desc": "recombinant human PAI-1 (Homo sapiens)",
    "Class label": "yes (1)"
  },
  {
    "Molecule": "O=C(O)CCc1cc(-c2ccc(OC(F)(F)F)cc2)ccc1OCc1ccccc1C(F)(F)F [Compound 21]",
    "Target desc": "recombinant human PAI-1 (Homo sapiens)",
    "Class label": "no (0)"
  },
  {
    "Molecule": "O=C(O)CCc1cc(-c2ccc(OC(F)(F)F)cc2)ccc1OCc1cccc(C(F)(F)F)c1 [Compound 58]",
    "Target desc": "recombinant human PAI-1 (Homo sapiens)",
    "Class label": "yes (1)"
  },
  {
    "Molecule": "O=C(O)/C=C/c1cc(-c2ccc(OC(F)(F)F)cc2)ccc1OCc1cccc(C(F)(F)F)c1 [Compound 57]",
    "Target desc": "recombinant human PAI-1 (Homo sapiens)",
    "Class label": "no (0)"
  },
  {
    "Molecule": "O=C(O)CCc1cc(-c2ccc(OC(F)(F)F)cc2)ccc1Oc1ccc(OC(F)(F)F)cc1 [Compound 16]",
    "Target desc": "recombinant human PAI-1 (Homo sapiens)",
    "Class label": "yes (1)"
  },
  {
    "Molecule": "Cc1cc(C)cc(COc2ccc(-c3ccc(OC(F)(F)F)cc3)cc2CCC(=O)O)c1 [Compound 59]",
    "Target desc": "recombinant human PAI-1 (Homo sapiens)",
    "Class label": "no (0)"
  }
]
